- target-of-assay: human H4 receptor (Homo sapiens (Human))
- Sequence (Q9H3N8 whole entry): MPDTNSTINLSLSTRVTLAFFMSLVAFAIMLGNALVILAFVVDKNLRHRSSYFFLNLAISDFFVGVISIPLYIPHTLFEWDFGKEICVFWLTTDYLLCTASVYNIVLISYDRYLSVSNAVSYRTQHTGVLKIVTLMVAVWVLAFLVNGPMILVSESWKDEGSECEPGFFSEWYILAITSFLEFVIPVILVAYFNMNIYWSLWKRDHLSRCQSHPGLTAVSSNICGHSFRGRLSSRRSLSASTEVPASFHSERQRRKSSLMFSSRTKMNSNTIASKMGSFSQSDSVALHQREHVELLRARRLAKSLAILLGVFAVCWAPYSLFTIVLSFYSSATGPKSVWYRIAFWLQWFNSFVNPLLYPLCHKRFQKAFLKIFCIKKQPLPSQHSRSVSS
measurement-label: pIC50
In plain terms, pIC50 is the concentration in mol/L turned into minus its base-10 logarithm.

QUERY: For CN1CCN(c2nc(NCc3cccs3)c3cnc(Cl)cc3n2)CC1 [Example 3P, reference compound] , what is its reported pIC50?
RESULT: 6.05

----------
- target-of-assay: UniProt:Q9H3N8
- method: H4 Binding assay ([3H]histamine competition, membranes from CHO-K1 cells transfected with human H4 receptor)
- run-parameters: affinity for human histamine H4 receptor, class symbols; read-out: ACTIVITY CLASS hH4R (Ki)
measurement-label: Ki

QUERY: Request body: readout Ki, system UniProt:Q9H3N8, query COc1ccccc1NS(=O)(=O)CCNc1nc(N2CCN(C)CC2)nc2cnc(Cl)cc12 . Return the value.
RESULT: < 100 nM

QUERY: Also, CN1CCN(c2nc(NCCS(=O)(=O)Nc3cccnc3)c3cc(Cl)ncc3n2)CC1 please.
RESULT: < 100 nM

QUERY: Also, Cc1cccc(NS(=O)(=O)CCNc2nc(N3CCN(C)CC3)nc3cnc(Cl)cc23)c1 please.
RESULT: < 100 nM

QUERY: Also, O=S(=O)(CCNc1nc(N2CCNCC2)nc2cnc(Cl)cc12)Nc1ccccc1 please.
RESULT: < 100 nM

QUERY: Also, CN1CCN(c2nc(NCc3nccs3)c3cc(Cl)ncc3n2)CC1 please.
RESULT: < 1000 nM

QUERY: Also, CC(C)c1cc2c(NCc3ccco3)nc(N3CCN(C)CC3)nc2cn1 please.
RESULT: < 1000 nM

QUERY: Also, CSc1cccc(NS(=O)(=O)CCNc2nc(N3CCN(C)CC3)nc3cnc(Cl)cc23)c1 please.
RESULT: < 100 nM

QUERY: Also, CN1CCN(c2nc(NCc3ncc[nH]3)c3cc(Cl)ncc3n2)CC1 please.
RESULT: < 1000 nM

QUERY: Also, CN1CCN(c2nc(NCCS(=O)(=O)c3ccccc3)c3cc(Cl)ncc3n2)CC1 please.
RESULT: < 100 nM

QUERY: Also, CN(c1ccccc1)S(=O)(=O)CCNc1nc(N2CCNCC2)nc2cnc(Cl)cc12 please.
RESULT: < 100 nM

QUERY: Also, COc1cccc(NS(=O)(=O)CCNc2nc(N3CCN(C)CC3)nc3cnc(Cl)cc23)c1 please.
RESULT: < 100 nM

QUERY: Also, Cc1cc2c(NCc3cccs3)nc(N3CCN(C)CC3)nc2cn1 please.
RESULT: < 1000 nM

QUERY: Also, CN1CCN(c2nc(NCCS(=O)(=O)N(C)c3ccccc3)c3cc(Cl)ncc3n2)CC1 please.
RESULT: < 100 nM

QUERY: Also, CN1CCN(c2nc(NCCS(=O)(=O)Nc3cccc(Cl)n3)c3cc(Cl)ncc3n2)CC1 please.
RESULT: < 1000 nM

QUERY: Also, CC(C)c1cc2c(NCc3cccs3)nc(N3CCN(C)CC3)nc2cn1 please.
RESULT: < 100 nM

QUERY: Also, CNS(=O)(=O)CCNc1nc(N2CCN(C)CC2)nc2cnc(Cl)cc12 please.
RESULT: < 100 nM

QUERY: Also, CCCc1cc2c(NCCc3cccs3)nc(N3CCN(C)CC3)nc2cn1 please.
RESULT: < 1000 nM

QUERY: Also, Cc1ccccc1NS(=O)(=O)CCNc1nc(N2CCN(C)CC2)nc2cnc(Cl)cc12 please.
RESULT: < 100 nM

Sourced from patent US12492199B2
